- Tested on: NCI/ADR-RES ovarian
- assaySummary: NCI tumour cell line growth inhibition, 48 h
measuredProperty: TGI

Consider the worked cases shown below.
compound	measuredProperty	measuredValue
O=[N+]([O-])c1ccc(-c2cc3c(Nc4ccc(Cl)c(C(F)(F)F)c4)ncnc3s2)cc1	TGI	> 100 µM
O=C(c1cccs1)C1NO[N+]([O-])=C1c1cccs1 (stereo not given)	TGI	18.9 µM
C/C(=C\CO)CC/C=C(\C)CNc1ccc([N+](=O)[O-])cc1	TGI	64.5 µM
Cc1ccc(-n2nc(C(C)(C)C)cc2NC(=O)NCc2cc(F)ccc2Oc2ccc3c(cnn3CCO)c2)cc1	TGI	> 100 µM

# input for lookup
IN: Write down the reported TGI of CCCCCCCCCCCCCC[n+]1cccc(C(N)=O)c1 , test system: NCI/ADR-RES ovarian.
OUT: > 80.3 µM
